Target: JARID1B (Homo sapiens)
Construct: The FLAG tagged full length JARID1B enzyme was expressed in Sf21 insect cells using FLAG-JARID1B baculoviruses; FLAG (N); made in house; host or cells: Sf21 insect cells (baculovirus)
Sequence (Q9UGL1 whole entry): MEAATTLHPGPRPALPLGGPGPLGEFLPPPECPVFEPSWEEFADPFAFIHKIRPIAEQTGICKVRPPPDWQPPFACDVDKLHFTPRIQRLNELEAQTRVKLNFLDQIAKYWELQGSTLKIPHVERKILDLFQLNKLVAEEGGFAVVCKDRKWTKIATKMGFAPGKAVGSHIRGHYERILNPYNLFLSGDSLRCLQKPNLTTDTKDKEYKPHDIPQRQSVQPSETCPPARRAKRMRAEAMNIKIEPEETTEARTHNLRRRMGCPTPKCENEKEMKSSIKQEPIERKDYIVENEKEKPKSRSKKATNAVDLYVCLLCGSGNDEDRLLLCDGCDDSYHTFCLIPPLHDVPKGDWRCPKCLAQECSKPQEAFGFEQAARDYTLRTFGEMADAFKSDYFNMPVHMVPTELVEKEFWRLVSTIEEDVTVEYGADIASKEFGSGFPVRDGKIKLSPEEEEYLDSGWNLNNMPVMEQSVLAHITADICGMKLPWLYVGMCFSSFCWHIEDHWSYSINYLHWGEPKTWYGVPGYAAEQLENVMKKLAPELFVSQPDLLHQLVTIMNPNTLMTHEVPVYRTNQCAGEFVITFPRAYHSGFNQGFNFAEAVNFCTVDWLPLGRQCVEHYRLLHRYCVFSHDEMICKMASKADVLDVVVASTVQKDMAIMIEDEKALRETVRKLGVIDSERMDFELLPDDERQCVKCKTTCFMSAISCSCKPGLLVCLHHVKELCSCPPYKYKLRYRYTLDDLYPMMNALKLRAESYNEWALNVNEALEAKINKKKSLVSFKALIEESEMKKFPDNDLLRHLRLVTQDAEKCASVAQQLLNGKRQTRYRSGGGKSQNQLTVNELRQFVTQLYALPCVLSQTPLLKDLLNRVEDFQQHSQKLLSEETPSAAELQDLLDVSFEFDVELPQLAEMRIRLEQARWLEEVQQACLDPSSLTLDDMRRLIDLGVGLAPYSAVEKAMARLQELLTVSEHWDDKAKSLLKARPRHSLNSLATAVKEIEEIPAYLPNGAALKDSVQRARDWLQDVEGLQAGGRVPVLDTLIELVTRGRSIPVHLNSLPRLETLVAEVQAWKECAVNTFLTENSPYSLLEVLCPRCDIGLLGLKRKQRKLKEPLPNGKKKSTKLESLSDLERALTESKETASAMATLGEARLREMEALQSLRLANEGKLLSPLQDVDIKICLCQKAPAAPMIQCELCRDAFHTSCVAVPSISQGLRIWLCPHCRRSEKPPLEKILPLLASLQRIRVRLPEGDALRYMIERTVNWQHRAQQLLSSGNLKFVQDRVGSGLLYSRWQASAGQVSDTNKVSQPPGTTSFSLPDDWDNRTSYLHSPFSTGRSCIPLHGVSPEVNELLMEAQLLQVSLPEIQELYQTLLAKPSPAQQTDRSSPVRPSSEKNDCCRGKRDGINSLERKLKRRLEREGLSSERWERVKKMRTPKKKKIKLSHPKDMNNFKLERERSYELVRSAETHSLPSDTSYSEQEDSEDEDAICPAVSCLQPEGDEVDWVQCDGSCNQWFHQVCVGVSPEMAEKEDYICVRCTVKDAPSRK
Test: FLAG-JARID1B histone demethylase assay with AlphaScreen detection (HTS and dose response);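 as to Assay − Artifact Signal (percent): compound tested at 20 µM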
Format: biochemical
Settings: assay signal minus artifact signal
Structures can show the parent of a compound that is named as a salt.
Assign labels as follows, please: Satisfied for Assay − Artifact Signal (percent) below 20%; Not satisfied for Assay − Artifact Signal (percent) equal to or exceeding 20%.

// below: answered molecules
N#Cc1c(O)nc(S)nc1-c1ccccc1: Satisfied
CCOc1cc(CN)cc(Cl)c1OCC.Cl: Not satisfied
N#CC(=CC=Cc1ccco1)C(N)=S (single isomer, unassigned): Not satisfied
Fc1cccc(Cl)c1CNn1cnnc1S: Not satisfied
CCCCC(CC)CNC(=N)NC(=N)NCCCCCCNC(=N)NC(=N)NCC(CC)CCCC (centres unmarked) [YU034347, ALEXIDINE HYDROCHLORIDE, reference compound]: Not satisfied
Cc1nnc(S)n1NCc1ccc2c(c1)OCO2: Not satisfied
CCC(=O)Nc1ccc(N2CCC(C(N)=O)(N3CCCCC3)CC2)c(C(=O)O)c1: Satisfied
O=C(O[C@@H]1Cc2c(O)cc(O)cc2O[C@@H]1c1cc(O)c(O)c(O)c1)c1cc(O)c(O)c(O)c1 [YU040338, Epigallocatechin gallate, reference compound]: Satisfied

Exercise: A record lists COc1cccc(O)c1O [YU155465, 3-METHOXYCATECHOL, reference compound] . Is its Assay − Artifact Signal (percent) below 20%?
Solution: Not satisfied

Exercise: I'd appreciate it if you could check whether Oc1c(C(Nc2ccc(Cl)cc2)c2cccnc2)ccc2cccnc12 (centres unmarked) has Assay − Artifact Signal (percent) smaller than 20%.
Solution: Satisfied

Exercise: Dear colleague, could you confirm whether Assay − Artifact Signal (percent) of Oc1cc(O)c2c(c1)O[C@H](c1ccc(O)c(O)c1)[C@H](O)C2 [YU155618, EPICATECHIN, reference compound] falls below 20%? Thanks.
Solution: Not satisfied

###

Experiment: AlphaScreen counterscreen against bio-H3K4me2 peptide in the absence of enzyme (artifact signal)
Details: effect of the compound when incubated with bio-H3K4me2 peptide (counterscreen, no enzyme)
observable: Artifact Signal (percent) (%)
Give the number; % is assumed, so skip it.

// solved cases for Artifact Signal (percent) follow
N#CC(C#N)=Cc1cc(O)c(O)c(O)c1 [YU154832, TYRPHOSTIN 25, reference compound]: 5.21
C[C@@](Cc1ccc(O)c(O)c1)(NN)C(=O)O [YU034292, CARBIDOPA, reference compound]: 53.76
Oc1cc(O)c2c(c1)O[C@H](c1ccc(O)c(O)c1)[C@H](O)C2 [YU155618, EPICATECHIN, reference compound]: 6.96
Cc1[nH]c2nc(C(F)(F)F)nn2c(=O)c1C: −4.00
O=C1c2c(O)cccc2Cc2cccc(O)c21 [YU033694, ANTHRALIN, reference compound]: 9.35
NC(=O)c1ncn([C@@H]2O[C@H](CO)[C@@H](O)[C@H]2O)n1 [YU034518, RIBAVIRIN, reference compound]: −5.97
COc1cc(C=C[N+](=O)[O-])ccc1OCc1cccc(C(=O)O)c1 (single isomer, unassigned): 91.35
Cc1cccc(NC(c2cccnc2)c2ccc3cccnc3c2O)c1 (stereo not drawn): 61.44
c1ccc(-c2nc3ccccn3c2Nc2ccc3c(c2)OCCO3)nc1: 10.03
COc1ccc(CNn2c(C)nnc2S)cc1: 8.17

Exercise: Given "CCC(=O)Nc1ccc(N2CCCC2)c(C(=O)O)c1" , state its recorded Artifact Signal (percent).
Solution: 32.96

Exercise: Bench note: what Artifact Signal (percent) did "Cc1c2c(=O)n(-c3nc4ccccc4s3)[nH]c2cc(=O)n1CCN1CCOCC1" show?
Solution: −6.77

Exercise: Artifact Signal (percent) for CC(=O)C(C)O[Si](C(C)C)(C(C)C)C(C)C (stereo not drawn) ?
Solution: 6.78

Exercise: Give the measured Artifact Signal (percent) of "Cc1cc(C)nc(Nc2ccc(N(C)C)cc2)n1" .
Solution: 3.15

Exercise: Value lookup for Artifact Signal (percent); key = "CC(=O)Nc1ccccc1NC(=O)c1ccc2c(c1)OCO2"
Solution: −1.85

Exercise: What Artifact Signal (percent) value was documented for this compound, "CCOc1cc(CN)cc(Cl)c1OCC.Cl" ?
Solution: 0.11

Exercise: Find the recorded Artifact Signal (percent) belonging to O=C(O)c1cc(O)c(O)c(O)c1 [YU155562, GALLIC ACID, reference compound] and report it.
Solution: 8.44

Exercise: Give its Artifact Signal (percent) value. Item: O=c1c(O)cc([C@H]2Oc3cc(O)cc(O)c3C[C@H]2O)cc2c([C@H]3Oc4cc(O)cc(O)c4C[C@H]3O)cc(O)c(O)c12 [YU155003, THEAFLAVIN, reference compound]
Solution: 47.32

###

Recorded inhibition at 20 µM, one value per entry.
Biological target: JARID1B (Homo sapiens)
Construct: The FLAG tagged full length JARID1B enzyme was expressed in Sf21 insect cells using FLAG-JARID1B baculoviruses; FLAG (N); made in house; host or cells: Sf21 insect cells (baculovirus)
Experiment: FLAG-JARID1B histone demethylase assay with AlphaScreen detection (HTS and dose response);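 also: FLAG-tagged JARID1B at 4 nM acting on a biotinylated H3K4me3 peptide, demethylation read by AlphaScreen luminescence, with hits checked against bio-H3K4me2 without enzyme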
Assay type: biochemical
Conditions: high-throughput screen, compound 20 μM, standard demethylase conditions (10 μM α-KG, 50 μM Fe (II)); read-out: Inhibitory effect (percent)
Counter-ions that a name gives are not always drawn.
Express your answer as a number followed by its unit.

COCc1cc(O)c(O)c(O)c1-c1c(COC)cc(O)c(O)c1O [YU154887, reference compound]: 103%
Cn1cc(C2=C(c3cn(CCCSC(=N)N)c4ccccc34)C(=O)NC2=O)c2ccccc21 [YU154853, Ro 31-8220, reference compound]: 44%
COc1cc(C(=S)N2CC(C)OC(C)C2)cc(OC)c1O (centres unmarked): 30.8%
O=C(NC1CCCCC1)c1ccc(NC(=O)c2ccccc2O)cc1: 45%
O=c1cc(-c2ccccc2)oc2cc(O)c(O)c(O)c12 [YU155285, BAICALEIN, reference compound]: 65.2%

Exercise: Entry C=C1c2cccc(O)c2C(=O)C2=C(O)[C@]3(O)C(=O)C(C(N)=O)=C(O)[C@@H](N(C)C)[C@@H]3[C@@H](O)[C@H]12 [YU034167, METHACYCLINE HYDROCHLORIDE, reference compound] has what inhibition at 20 µM?
Solution: 51.5%

###

Overview of reported Artifact Signal (percent) across a group of compounds:
Test: AlphaScreen counterscreen against bio-H3K4me2 peptide in the absence of enzyme (artifact signal);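 also: counterscreen run without enzyme against bio-H3K4me2 peptide to remove false positive hits from the JARID1 demethylase AlphaScreen screen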
Details: effect of the compound when incubated with bio-H3K4me2 peptide (counterscreen, no enzyme)
Structures can show the parent of a compound that is named as a salt.
Write down the numeric answer in % and omit the unit.

Take a look at these entries with their results.
O=c1oc2c(O)c(O)cc3c(=O)oc4c(O)c(O)cc1c4c23 [YU034320, ELLAGIC ACID, reference compound]: 2.37
COc1c(O)cc2c(c1O)[C@@H]1O[C@H](CO)[C@@H](O)[C@H](O)[C@H]1OC2=O [YU155621, BERGENIN, reference compound]: 20.42
Oc1cc(O)cc(/C=C/c2ccc(O)c(O)c2)c1 [YU154843, PICEATANNOL, reference compound]: −4.85
NCCc1cc(O)c(O)cc1O [YU033940, OXIDOPAMINE HYDROCHLORIDE, reference compound]: 16.96
O=Cc1ccc(-c2ccc(S(=O)(=O)O)cc2)o1: −4.14
CCCCC(CC)CNC(=N)NC(=N)NCCCCCCNC(=N)NC(=N)NCC(CC)CCCC (stereo not drawn) [YU034347, ALEXIDINE HYDROCHLORIDE, reference compound]: 5.60
C=CCn1c(Cc2nc3ccccc3[nH]2)n[nH]c1=S: −0.55
N#CC(=Cc1ccncc1)c1nc2cc(C(F)(F)F)ccc2s1 (single isomer, unassigned): −5.27
O=c1c2cc(O)c(O)cc2oc2cc(O)c([C@@H]3O[C@H](CO)[C@@H](O)[C@H](O)[C@H]3O)c(O)c12 [YU153356, MANGIFERIN, reference compound]: 76.59
Cc1noc2c1C(c1ccc(O)c(O)c1)C1=C(CCCC1=O)N2 (stereo not drawn): 4.16

Exercise: Would you kindly share the measured Artifact Signal (percent) for C#CCCCCCCCCCCCC(O)CC(O)COC(C)=O (stereo not drawn) [YU155369, AVOCADYNE ACETATE, reference compound] ?
Solution: −0.21

Exercise: Which value of Artifact Signal (percent) has been reported for "CCCCC(=O)Nc1ccc(N(C)CCc2c(C)nn(C)c2C)c(C(=O)O)c1" in the records?
Solution: 18.67

Exercise: Quick one: Artifact Signal (percent) for O=C(O[C@@H]1Cc2c(O)cc(O)cc2O[C@@H]1c1cc(O)c(O)c(O)c1)c1cc(O)c(O)c(O)c1 [YU040338, Epigallocatechin gallate, reference compound] ?
Solution: 80.56

Exercise: Would you kindly share the measured Artifact Signal (percent) for O=c1ccc2cc(O)c(O)cc2o1 [YU155534, ESCULETIN, reference compound] ?
Solution: 6.30

Exercise: Query (compound): Oc1c(C(Nc2ccc(Cl)cc2)c2cccnc2)ccc2cccnc12 (stereo not drawn) ; field requested: Artifact Signal (percent)
Solution: 28.76
